- TEST_DETAILS: In vitro inhibitory concentration against human amelanotic melanoma cell line (C32) in the presence of vinblastine sulfate salt
- Format: functional
OBSERVED_PROPERTY: IC50 (µM)

COc1ccc(-c2cc(=O)c3c(O)c(OC)c(O[C@@H]4OC(CO[C@@H]5OC(C)[C@H](O)[C@H](O)C5OC(C)=O)[C@@H](O)[C@H](O)C4O)cc3o2)cc1 (stereo partly specified): 11.8
COc1ccc(-c2cc(=O)c3c(O)c(OC)c(O[C@@H]4O[C@H](CO[C@@H]5O[C@@H](C)[C@H](O)[C@@H](O)[C@H]5O)[C@@H](O)[C@H](O)[C@H]4O)cc3o2)cc1: 7.17

(P) COc1ccc(-c2cc(=O)c3c(O)c(OC)c(O[C@@H]4OC(CO[C@@H]5OC(C)[C@H](O)[C@H](OC(C)=O)C5O)[C@@H](O)[C@H](O)C4O)cc3o2)cc1 (stereo partly specified)
(Q) COc1ccc(-c2cc(=O)c3c(O)c(OC)c(O[C@@H]4OC(CO[C@@H]5OC(C)[C@H](OC(C)=O)[C@H](O)C5O)[C@@H](O)C(O)[C@@H]4O)cc3o2)cc1 (stereo partly specified)
(R) COc1ccc(-c2cc(=O)c3c(O)c(OC)c(O)cc3o2)cc1
Ask: Rank order required: IC50, descending. A complete answer lists every label in the requested sequence.
Reply: P, Q, R

* * *

- Test system: Caco-2
- TEST_DETAILS: In vitro inhibitory concentration against human colorectal adenocarcinoma Caco-2 cells in the presence of vinblastine sulfate salt
- Assay type: functional, cell-based
OBSERVED_PROPERTY: IC50 (µM)

COc1ccc(-c2cc(=O)c3c(O)c(OC)c(O[C@@H]4OC(CO[C@@H]5OC(C)[C@H](OC(C)=O)[C@H](O)C5O)[C@@H](O)C(O)[C@@H]4O)cc3o2)cc1 (some centres undefined): 8.01

(I) COc1ccc(-c2cc(=O)c3c(O)c(OC)c(O[C@@H]4OC(CO[C@@H]5OC(C)[C@H](O)[C@H](OC(C)=O)C5O)[C@@H](O)[C@H](O)C4O)cc3o2)cc1 (some centres undefined)
(II) COc1ccc(-c2cc(=O)c3c(O)c(OC)c(O[C@@H]4OC(CO[C@@H]5OC(C)[C@H](O)[C@H](O)C5OC(C)=O)[C@@H](O)[C@H](O)C4O)cc3o2)cc1 (some centres undefined) [ISOLINARIIN A]
Ask: Returns the identifier with the smallest measured IC50 among I and II . Please identify the chosen entry by its label.
Reply: II

Where do the numbers come from? From ChEMBL document CHEMBL1143463.
